Please go through the items and note down their SPOT intensity.
Target: T1, Fus1, P11710
T1 sequence (P11710 432-512, looked up): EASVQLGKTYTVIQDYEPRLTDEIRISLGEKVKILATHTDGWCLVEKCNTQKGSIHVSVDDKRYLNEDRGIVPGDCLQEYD
Test: SPOT array
Settings: median of control spots 1200
Reply with just the number.

Query :: Which SPOT intensity is reported for this binder? LKPPIGRPPKFPKSP
Result :: 0

Query :: Which SPOT intensity is reported for this binder? QGYPRQPQRPQRYHP
Result :: 0

Query :: Which SPOT intensity is reported for this binder? KLSRGRYGLPLSSRP
Result :: 3

Query :: Which SPOT intensity is reported for this binder? AIPPPVPNRPGGTTN
Result :: 0
